- Tested on: rodent lifetime carcinogenesis bioassay, tumor incidence TD50
- METHOD NOTES: carcinogenic potency in animals, long-term in vivo studies, CPDB compilation (AID 1745844)
- EXPERIMENTAL SETUP: rat; strain Sprague-Dawley; females; by gavage; site: any site (literature study); lesion: several types; types named in the paper; dosed 104 weeks; study length 141 weeks
Listed here are compounds together with their documented TD50.

SMILES INPUT: CCc1ccccc1
TD50: 635 mg/kg/day
--
SMILES INPUT: Cc1cccc(C)c1
TD50: 304 mg/kg/day

----------
- System: rodent lifetime carcinogenesis bioassay, tumor incidence TD50
- METHOD NOTES: carcinogenic potency in animals, long-term in vivo studies, CPDB compilation (AID 1745844)
- EXPERIMENTAL SETUP: rat; strain Fischer 344; females; by gavage; site: forestomach; lesion: squamous-cell papilloma; dosed 104 weeks; study length 104 weeks
OBSERVED PROPERTY: TD50

SMILES INPUT: C/C=C/C=C/C=O
RESULT: 102 mg/kg/day

----------
Listed here are compounds together with their documented TD50.
- Tested on: rodent lifetime carcinogenesis bioassay, tumor incidence TD50
- METHOD NOTES: carcinogenic potency in animals, long-term in vivo studies, CPDB compilation (AID 1745844)
- EXPERIMENTAL SETUP: mouse; strain Charles River CD1; males; in feed; site: any site (literature study); lesion: several types; types named in the paper; dosed 104 weeks; study length 104 weeks
Calls of active or inactive are those of the source. How the calls were made is not given here.

SMILES INPUT: O=C(O)CCCC/C=C(\c1ccccc1)c1cccnc1
SYSTEM NAME: rodent lifetime carcinogenesis bioassay, tumor incidence TD50
TD50: 1090 mg/kg/day (inactive)
--
SMILES INPUT: O=C1OC2(c3ccccc31)c1cc(I)c(O)c(I)c1Oc1c2cc(I)c(O)c1I
SYSTEM NAME: rodent lifetime carcinogenesis bioassay, tumor incidence TD50
TD50: 17000 mg/kg/day
--
SMILES INPUT: OC(Cn1cncn1)(Cn1cncn1)c1ccc(F)cc1F
SYSTEM NAME: rodent lifetime carcinogenesis bioassay, tumor incidence TD50
TD50: 239 mg/kg/day (inactive)

----------
- Test system: rodent lifetime carcinogenesis bioassay, tumor incidence TD50
- METHOD NOTES: carcinogenic potency in animals, long-term in vivo studies, CPDB compilation (AID 1745844)
- EXPERIMENTAL SETUP: rat; strain Fischer 344/Jcl; females; in feed; site: any site (literature study); lesion: several types; types named in the paper; dosed 104 weeks; study length 104 weeks
Activity calls are given as the source filed them. How the calls were made is not given here.

COMPOUND: CCOc1nc2cccc(C(=O)OC(C)OC(=O)OC3CCCCC3)c2n1Cc1ccc(-c2ccccc2-c2nn[nH]n2)cc1 (stereo unspecified)
TD50: 11200 mg/kg/day (inactive)

----------
- System: rodent lifetime carcinogenesis bioassay, tumor incidence TD50
- METHOD NOTES: carcinogenic potency in animals, long-term in vivo studies, CPDB compilation (AID 1745844)
- EXPERIMENTAL SETUP: rat; strain Fischer 344; males; by gavage; site: forestomach; lesion: squamous-cell carcinoma; dosed 94 weeks; study length 104 weeks
Listed here are compounds together with their documented TD50.
OBSERVED PROPERTY: TD50

SMILES INPUT: ClCC(Cl)CCl
OBSERVED PROPERTY: TD50
RESULT: 3 mg/kg/day
//
SMILES INPUT: CC(C)=CCl
OBSERVED PROPERTY: TD50
RESULT: 135 mg/kg/day

----------
- Test system: rodent lifetime carcinogenesis bioassay, tumor incidence TD50
- METHOD NOTES: carcinogenic potency in animals, long-term in vivo studies, CPDB compilation (AID 1745844)
- EXPERIMENTAL SETUP: mouse; strain B6C3F1; males; in feed; site: eye; lesion: adenoma, NOS; dosed 106 weeks; study length 106 weeks

SMILES INPUT: CCN(CC)C(=S)S[Te](SC(=S)N(CC)CC)(SC(=S)N(CC)CC)SC(=S)N(CC)CC
TD50: 201 mg/kg/day

----------
- Tested on: rodent lifetime carcinogenesis bioassay, tumor incidence TD50
- METHOD NOTES: carcinogenic potency in animals, long-term in vivo studies, CPDB compilation (AID 1745844)
- EXPERIMENTAL SETUP: rat; strain F344/DuCrj; females; in feed; site: uterus; lesion: endometrial stromal polyp; dosed 112 weeks; study length 112 weeks

SMILES INPUT: Cc1nc(N)cc2[nH]c3ccccc3c12
SYSTEM NAME: rodent lifetime carcinogenesis bioassay, tumor incidence TD50
TD50, mg/kg/day: 3.6

----------
- Test system: rodent lifetime carcinogenesis bioassay, tumor incidence TD50
- METHOD NOTES: carcinogenic potency in animals, long-term in vivo studies, CPDB compilation (AID 1745844)
- EXPERIMENTAL SETUP: mouse; strain A/JJms; females; in feed; site: liver; lesion: liver-cell tumor, type B; dosed 68 weeks; study length 68 weeks
Calls of active or inactive are those of the source. The rule behind the calls is not given here.

MOLECULE: CC(=O)N[C@@H](CC(C)C)C(=O)N[C@@H](CC(C)C)C(=O)NC(C=O)CCCN=C(N)N (stereo partly specified)
SYSTEM NAME: rodent lifetime carcinogenesis bioassay, tumor incidence TD50
TD50: 933 mg/kg/day (inactive)

----------
- System: rodent lifetime carcinogenesis bioassay, tumor incidence TD50
- METHOD NOTES: carcinogenic potency in animals, long-term in vivo studies, CPDB compilation (AID 1745844)
- EXPERIMENTAL SETUP: rat; strain Fischer 344; males; in feed; site: pancreas; lesion: acinar-cell adenoma; dosed 108 weeks; study length 108 weeks

MOLECULE: CC(C)(Oc1ccc(C2CCCc3ccccc32)cc1)C(=O)O (stereo unspecified)
TD50 (mg/kg/day): 207

----------
- Test system: rodent lifetime carcinogenesis bioassay, tumor incidence TD50
- METHOD NOTES: carcinogenic potency in animals, long-term in vivo studies, CPDB compilation (AID 1745844)
- EXPERIMENTAL SETUP: rat; strain Fischer 344; females; in drinking water; site: liver; lesion: neoplastic nodule; dosed 104 weeks; study length 128 weeks
OBSERVED PROPERTY: TD50 (mg/kg/day)

SMILES INPUT: O=NO
SYSTEM NAME: rodent lifetime carcinogenesis bioassay, tumor incidence TD50
OBSERVED PROPERTY: TD50
NUMERIC RESULT: 185

----------
- Tested on: rodent lifetime carcinogenesis bioassay, tumor incidence TD50
- METHOD NOTES: carcinogenic potency in animals, long-term in vivo studies, CPDB compilation (AID 1745844)
- EXPERIMENTAL SETUP: mouse; strain B6C3F1; males; in feed; site: liver; lesion: hepatocellular adenoma + hepatocellular carcinoma + neoplastic nodule; dosed 78 weeks; study length 103 weeks
OBSERVED PROPERTY: TD50

SMILES INPUT: COc1cc(-c2ccc(N=C=O)c(OC)c2)ccc1N=C=O
RESULT: 12100 mg/kg/day

----------
- Test system: rodent lifetime carcinogenesis bioassay, tumor incidence TD50
- METHOD NOTES: carcinogenic potency in animals, long-term in vivo studies, CPDB compilation (AID 1745844)
- EXPERIMENTAL SETUP: rat; strain Colworth (Wistar derived); females; in drinking water; site: liver; lesion: hepatocellular carcinoma; dosed 176 weeks; study length 176 weeks
OBSERVED PROPERTY: TD50

SMILES INPUT: CN(C)N=O
RESULT: 0.237 mg/kg/day

----------
- Test system: rodent lifetime carcinogenesis bioassay, tumor incidence TD50
- METHOD NOTES: carcinogenic potency in animals, long-term in vivo studies, CPDB compilation (AID 1745844)
- EXPERIMENTAL SETUP: rat; strain Fischer 344; males; in feed; site: spleen; lesion: fibroma; dosed 78 weeks; study length 104 weeks
OBSERVED PROPERTY: TD50

SMILES INPUT: Nc1ccc(S(=O)(=O)c2ccc(N)cc2)cc1
RESULT: 28.5 mg/kg/day

----------
Listed here are molecules together with their documented TD50.
- System: rodent lifetime carcinogenesis bioassay, tumor incidence TD50
- METHOD NOTES: carcinogenic potency in animals, long-term in vivo studies, CPDB compilation (AID 1745844)
- EXPERIMENTAL SETUP: mouse; strain B6AKF1; males; oral dosing; site: any site (literature study); lesion: several types; types named in the paper; dosed 79 weeks; study length 79 weeks
OBSERVED PROPERTY: TD50

MOLECULE: OCCN(CCO)C(=S)S
SYSTEM NAME: rodent lifetime carcinogenesis bioassay, tumor incidence TD50
OBSERVED PROPERTY: TD50
RESULT: 45.6 mg/kg/day
--
MOLECULE: C=C1C(C)(C)[C@@]2(Cl)C(Cl)[C@]1(Cl)C(Cl)(Cl)C2(Cl)Cl (some centres not stated)
SYSTEM NAME: rodent lifetime carcinogenesis bioassay, tumor incidence TD50
OBSERVED PROPERTY: TD50
RESULT: 0.75 mg/kg/day
